# System: Ha-Ras
# PROTOCOL_NOTES: Ha-Ras / Ki-Ras protein levels in primary fibroblasts (immunoprecipitation, immunoblot, immunofluorescence, FACS)
# Format: cell-based, human
# CONDITION_PARAMETERS: primary fibroblasts; PDGF 15 ng/ml

SMILES_ENTRY | effect on Ha-Ras induction by PDGF
O=c1c(-c2ccc(O)cc2)coc2cc(O)cc(O)c12 | inhibited
c1ccc2c(c1)[I+]c1ccccc1-2 | significantly inhibited
COc1cccc(-c2cc(=O)c3ccccc3o2)c1N | inhibited
CC(=O)N[C@@H](CS)C(=O)O | significantly inhibited
